Overview of reported melting point across a group of molecules:

MOLECULE | melting point
O=C(O)c1cc(N2CCOCC2)ccn1 | 257 to 259 °C
Cc1ccc(Oc2ccc3[nH]cccc-3c2=N)c(Br)c1 | 259 to 261 °C
N#Cc1ccc(N2CCC(N)CC2)nc1 | 70 to 72 °C
NNc1nccc2sccc12 | 191 to 193 °C
Cn1ncc2c(N)ncnc21 | 264 to 266 °C

Now consider a different molecule.
Supply reported melting point belonging to this molecule: Cc1csc(CC(N)=S)n1
126 to 128 °C

###

Overview of reported melting point across a group of compounds:

Use the examples below as a reference point.
COMPOUND | melting point
Sc1nnc(Nc2ccccc2)s1 | 160 to 162 °C
COc1ccc(OC)c(N2CC(C(=O)O)CC2=O)c1 (centres undefined) | 100 to 102 °C
Cn1cc[nH]c(=O)c1=O | 207 to 209 °C
O=C(O)C1=NC=CN2CCS(=O)(=O)N=C12 | 183 to 187 °C
COc1cccc2c1OCC(C(=O)O)C2 (centres undefined) | 174 to 176 °C

Supply reported melting point belonging to this compound: COC(=O)c1ccc2[nH]ncc2c1
193 to 195 °C

Supply reported melting point belonging to this compound: O=C(Nc1nccs1)C(Cl)(Cl)Cl
203 to 205 °C

Supply reported melting point belonging to this compound: O=C(Nc1ccc(F)cc1)Nc1cccc(O)c1
214 to 216 °C

Supply reported melting point belonging to this compound: CC(C)C(C(=O)O)N1CCN(C)CC1 (centres undefined)
195 to 197 °C

Supply reported melting point belonging to this compound: O=C(CCl)N1CCN(C(=O)Nc2ccccc2)CC1
168 to 170 °C

Supply reported melting point belonging to this compound: Cc1nc(Cl)cc(-c2ccccn2)n1
75 to 77 °C

Supply reported melting point belonging to this compound: Clc1cc(C2=NCCN2)ccn1
165 to 167 °C

Supply reported melting point belonging to this compound: Cc1nn(Cc2ccccc2)c(C)c1CN
39 to 41 °C

Supply reported melting point belonging to this compound: Cc1ccc(S(=O)(=O)N2CCC(C(=O)O)CC2)cc1C
190 to 192 °C

Supply reported melting point belonging to this compound: CCOC(=O)/C(C#N)=C\Nc1ccc(C)cc1
134 to 136 °C

Supply reported melting point belonging to this compound: O=Cc1c(Cl)nc(Cl)n1-c1ccccc1
133 to 135 °C

Supply reported melting point belonging to this compound: Nc1c(O)cccc1F
121 to 123 °C

Supply reported melting point belonging to this compound: Nc1cccc(CN2CCC(O)CC2)c1
146 to 148 °C

Supply reported melting point belonging to this compound: COC(=O)C(CO)NC(=O)C1CCCCC1 (centres undefined)
109 to 111 °C

###

METRIC: melting point

Use the examples below as a reference point.
COMPOUND | melting point
Cc1ccc(N2C(=O)CC(C(=O)O)C2c2cccs2)cc1 (configuration not stated) | 175 to 177 °C
O=C(CCl)NCc1ccc(F)cc1 | 92 to 95 °C
Cn1cc(C(=O)NN)cn1 | 179 to 181 °C
CS(=O)(=O)Nc1cccc2c1CCCN2 | 117 to 119 °C
FC(F)Oc1cccc(-c2ccc(Cl)nn2)c1 | 86 to 88 °C
O=C(O)c1cnn(CCCl)c1 | 147 to 149 °C
Cn1c(S)nnc1-c1ccc(F)cc1 | 111 to 115 °C
COC(=O)c1snc(-c2ccccc2)c1N | 114 to 116 °C
Cc1cc(=O)[nH]c2c1cnn2C1CCCC1 | 259 to 261 °C
FC(F)(F)CNc1nnc(S)s1 | 178 to 180 °C

Supply reported melting point belonging to this compound: O=C(O)c1cn(-c2cccc([N+](=O)[O-])c2)nn1
159 to 161 °C

Supply reported melting point belonging to this compound: Cc1cc(N2CCCC2=O)ccc1Br
107 to 109 °C

Supply reported melting point belonging to this compound: Cc1cc(Cl)c2cc(Cl)cc(C)c2n1
122 to 124 °C

Supply reported melting point belonging to this compound: NCc1cccc(NC(=O)c2cccc(F)c2)c1
100 to 102 °C

Supply reported melting point belonging to this compound: CSc1nc(C2CC2)cc(C(=O)O)c1C#N
181 to 183 °C

Supply reported melting point belonging to this compound: N#Cc1ccc(N2CCCC(Br)C2=O)cc1 (configuration not stated)
124 to 126 °C

Supply reported melting point belonging to this compound: Cc1cc(N)nn1-c1cccc(F)c1
69 to 71 °C

Supply reported melting point belonging to this compound: CC1=CC(=O)N(c2ccc(C(=O)O)cc2)C1=O
201 to 203 °C

Supply reported melting point belonging to this compound: Cc1nc(CC(N)=NO)cs1
139 to 141 °C

Supply reported melting point belonging to this compound: Cn1c(CC(N)=NO)nc2ccccc21
240 to 242 °C

###

Overview of reported melting point across a group of molecules:

Use the examples below as a reference point.
MOLECULE | VALUE
Cn1c(S)nnc1C1CCC1 | 124 to 126 °C
O=C(O)C1(c2cccc(Cl)c2)CCC1 | 101 to 103 °C
Oc1ccc(-c2nnco2)cc1 | 210 to 212 °C

Supply reported melting point belonging to this molecule: O=C(O)c1nc(Cl)cnc1Br
99 to 101 °C

Supply reported melting point belonging to this molecule: Nc1ccc(Nc2ccc(F)cc2)c2ccncc12
153 to 155 °C

Supply reported melting point belonging to this molecule: O=C1NC(=O)N(C2CCS(=O)(=O)C2)C1=O (stereo not drawn)
244 to 246 °C

Supply reported melting point belonging to this molecule: Nc1cccc(-c2ccc3ccccc3c2)n1
124 to 126 °C

Supply reported melting point belonging to this molecule: O=C(O)c1c2c(nc3ccccc13)C(=Cc1cccc([N+](=O)[O-])c1)CCC2
299 to 301 °C

###

Overview of reported melting point across a group of compounds:

COMPOUND | melting point
O=C1OCC(c2ccc(Cl)cc2)=C1c1cccs1 | 65 to 67 °C
O=C1CNC(=O)c2sccc2N1 | 239 to 241 °C
CC1=NN(c2ccc(Br)cc2)C(=O)C1 | 164 to 166 °C
CN(C(=O)CCl)C1(c2ccccc2Cl)CCCCC1=O (centres undefined) | 110 to 112 °C
NS(=O)(=O)c1nnc[nH]1 | 224 to 226 °C

Now consider a different compound.
Supply reported melting point belonging to this compound: O=C(O)C1CC1c1cccc(F)c1 (centres undefined)
78 to 80 °C

###

METRIC: melting point

COMPOUND | melting point
O=C(O)c1cc(-c2ccc(Cl)cc2)nn1-c1ccccc1 | 214 to 216 °C
Cc1ccc(-n2c(S)nnc2-c2ccncc2)cc1C | 260 to 262 °C
Cc1ccc(OCCCC(=O)O)c(C)c1 | 126 to 128 °C
OCc1cc(C23CC4CC(CC(C4)C2)C3)n[nH]1 | 159 to 161 °C
Cc1ccc(Cn2c(N)cc(=O)[nH]c2=O)cc1 | 279 to 281 °C
COc1cc(C)c(CSCC(=O)O)cc1OC | 63 to 65 °C

Supply reported melting point belonging to this compound: CCC1CCc2[nH]c(=O)c(C#N)cc2C1 (configuration not stated)
224 to 226 °C

Supply reported melting point belonging to this compound: COc1ccc(-c2csc(C)n2)cc1OC
74 to 76 °C

Supply reported melting point belonging to this compound: O=C(O)C1CC1c1cc(Cl)cc(Cl)c1 (configuration not stated)
134 to 136 °C

Supply reported melting point belonging to this compound: CCN(c1ccccc1)S(=O)(=O)c1cc(N)ccc1Cl
102 to 104 °C

Supply reported melting point belonging to this compound: Cn1c(Cl)nc2ccccc21
111 to 113 °C

###

Overview of reported melting point across a group of molecules:

MOLECULE | melting point
CC(C)(C)OC(=O)NC1CC1(F)F (configuration not stated) | 73 to 75 °C
CC(CO)Nc1nc2ccccc2[nH]1 (configuration not stated) | 174 to 176 °C
COC(=O)c1sc(N)nc1C(C)(C)C | 158 to 160 °C
O=C1CCC(C(=O)O)CC1 | 62 to 64 °C
NC(=O)c1ccc2c(N)ncnc2c1 | 359 to 361 °C

Supply reported melting point belonging to this molecule: C=CS(=O)(=O)c1cc(F)cc([N+](=O)[O-])c1
90 to 92 °C

Supply reported melting point belonging to this molecule: CNC(=O)CNc1cccc(OC)c1
78 to 80 °C

###

Overview of reported melting point across a group of compounds:

Use the examples below as a reference point.
COMPOUND | VALUE
COC(=O)C(Cc1c[nH]c2ccccc12)NC(=O)CCl (stereo unspecified) | 130 to 132 °C
O=[N+]([O-])c1[nH]cnc1-c1ccc(F)cc1 | 290 to 292 °C
COc1ccc(C(C)=O)cc1CC#N | 111 to 113 °C
Cc1ccc(S(=O)(=O)N2CCOCC2)cc1C(=O)O | 148 to 152 °C
N#Cc1cc(CO)ccn1 | 109 to 111 °C

Now consider a different compound.
Supply reported melting point belonging to this compound: O=C(O)COc1ccc(Cl)cc1Br
123 to 125 °C
